test system: T1, 006 PSMA Fab
T1 construct: In the phage ELISA the Fab was biotinylated and captured on neutravidin coated plates; also called Anti-PSMA Fab
experiment notes: clonal phage ELISA on biotinylated PSMA Fab captured on neutravidin, wells pre-incubated with PSMA antigen as competitor, anti-M13 HRP detection
Mark fulfilled for reported Phage binding ELISA signal, Anti-PSMA Fab with PSMA antigen of 0.09 or greater; mark not fulfilled for anything smaller.

Observe how each entry below is paired with its result.
binder	assigned label
VVPMCSPSWMCQGF [Phage-3064]	not fulfilled
VERSCVPSWMCYGF [Phage-3066]	not fulfilled
GMVRCVPQWMCVGF [Phage-3065]	fulfilled
SPYFCIPAWMCHGF [Phage-3071]	fulfilled
WLMRCEPQWMCAGF [Phage-3073]	fulfilled
LEKACVPQWMCYGL [Phage-3070]	fulfilled
ITKACIPEWMCHAF [Phage-3061]	not fulfilled

Query binder follows.
Task item: Check if Phage binding ELISA signal, Anti-PSMA Fab with PSMA antigen >= 0.09 (inclusive). Item: IMMRCEPVWMCEGF [Phage-3072]
Reply: fulfilled
